The values you see were collected from ChEMBL document CHEMBL1137580.

- Tested on: Brain
- methodDescription: Drug level in mouse brain at 1 mg/kg, ip
- Format: ADME, organism-based
- Design: dose 1 mg/kg, route intraperitoneal
- measurementConditions: in vivo
Mark Not met for Drug uptake values under 2000 ng/g, and Met for everything at or above.

C[C@@H]1CCCN1CCc1cc2cc(-c3ccc(C#N)cc3)ccc2o1 | Not met
Cc1cc2ncc(-c3ccc4cc(CCN5CCC[C@H]5C)ccc4n3)c(C)n2n1 | Not met
Cc1nc(N2CCCC2)ncc1-c1ccc2cc(CCN3CCC[C@H]3C)ccc2n1 | Not met

INPUT: Could you please find out whether "Cc1c(-c2ccc3cc(CCN4CCC[C@H]4C)ccc3n2)cnn1-c1ccccn1" has Drug uptake that meets 2000 ng/g or exceeds it?
OUTPUT: Not met

INPUT: Hi, just wondering whether "CCOc1ccc(-n2ncc(-c3ccc4cc(CCN5CCC[C@H]5C)ccc4n3)c2C)nn1" shows Drug uptake of 2000 ng/g or higher.
OUTPUT: Met

* * *

- methodDescription: Solubility in water at pH 7
- Format: physicochemical
List of solubility values.
Number in mg/mL, nothing else.

Cc1nn(C)cc1-c1ccc2cc(CCN3CCC[C@H]3C)ccc2n1 | 21

INPUT: What solubility value was documented for this compound, "Cc1cc2ncc(-c3ccc4cc(CCN5CCC[C@H]5C)ccc4n3)c(C)n2n1" ?
OUTPUT: 8.7

* * *

half-life for assorted compounds
- methodDescription: Half life in rat at 1 mg/kg, iv
- Format: ADME, organism-based
- Set-up: dose 1 mg/kg, route intravenous
- measurementConditions: in vivo
Give just the numeric value; h need not be written.

INPUT: Looking for the measured half-life of "Cc1nn(C)cc1-c1ccc2cc(CCN3CCC[C@H]3C)ccc2n1" , can you help?
OUTPUT: 1.7

INPUT: // returns reported half-life for input "Cc1c(-c2ccc3cc(CCN4CCC[C@H]4C)ccc3n2)cnn1-c1ccccn1"
OUTPUT: 2.4

INPUT: Which half-life is reported for this compound? "Cc1nc(N2CCCC2)ncc1-c1ccc2cc(CCN3CCC[C@H]3C)ccc2n1"
OUTPUT: 4

INPUT: Query: half-life; subject: "Cc1cc2ncc(-c3ccc4cc(CCN5CCC[C@H]5C)ccc4n3)c(C)n2n1"
OUTPUT: 5.3

INPUT: // query half-life value for entry "Cc1nc2ncccc2cc1-c1ccc2cc(CCN3CCC[C@H]3C)ccc2n1"
OUTPUT: 2

INPUT: Look up half-life for this compound: "CCOc1ccc(-n2ncc(-c3ccc4cc(CCN5CCC[C@H]5C)ccc4n3)c2C)nn1"
OUTPUT: 8.3

* * *

Listing of recorded Drug uptake by entry.
- Test system: Brain
- methodDescription: Drug level in rat brain at 1 mg/kg, iv
- Type: ADME, organism-based
- Set-up: dose 1 mg/kg, route intravenous
- measurementConditions: in vivo
Field format: number, assumed ng/g, no unit text.

A selection of reference data follows.
Cc1nc2ncccc2cc1-c1ccc2cc(CCN3CCC[C@H]3C)ccc2n1 | 50
Cc1cc2ncc(-c3ccc4cc(CCN5CCC[C@H]5C)ccc4n3)c(C)n2n1 | 440

INPUT: Bench note: what Drug uptake did "C[C@@H]1CCCN1CCc1cc2cc(-c3ccc(C#N)cc3)ccc2o1" show?
OUTPUT: 3082

INPUT: What value of measured Drug uptake is listed for "Cc1nn(C)cc1-c1ccc2cc(CCN3CCC[C@H]3C)ccc2n1" ?
OUTPUT: 425
